Source listed as patent US8901126B2.

What pIC50 was measured for each of the following?
Biological target: PDE9 (Homo sapiens)
Experiment: PDE9-inhibiting activity (SPA, 3H-cGMP degradation)
Settings: PDE9-inhibiting activity (IC50 values), cGMP 1 μM, 30° C.
Where a name gives a salt, the structure may show the parent alone.
Give bare numbers, as −log10 of the molar value.

Consider the reported pIC50 for these molecules:
MOLECULE	pIC50
Cc1cc2c(cc1C(=O)N1c3ccc(Cl)cc3CC1C)[nH]c(=O)c1nnc(C3CCOCC3)n12.Cl (stereo not drawn)	8.68
CCc1cnc2c(c1)CCN2C(=O)c1cc2[nH]c(=O)c3cnc(C4CCOC4)n3c2cc1COC (single isomer, unassigned) [Example 40(b)]	7.80
CCc1cnc2c(c1)CCN2C(=O)c1cc2[nH]c(=O)c3nnc(CC4CC4)n3c2cc1C [Example 6, dihydrochloride]	7.19
COc1cc2c(cn1)N(C(=O)c1cc3[nH]c(=O)c4cnc(C5CCOC5)n4c3cc1C)CC2 (single isomer, unassigned) [Example 27(a)]	6.86
COCc1cccc2c1CN(C(=O)c1cc3[nH]c(=O)c4cnc(C5CCOCC5)n4c3cc1C)C2	7.85

Next item in the queue.
Name the recorded pIC50 for COCc1cc2c(cc1C(=O)N1CCc3cc(Br)cnc31)[nH]c(=O)c1cnc(C3CCOC3)n12 (single isomer, unassigned) [Example 43(a)] .
7.60

----------
Target: PDE9 (Homo sapiens, UniProt O76083)
Sequence (O76083 whole entry): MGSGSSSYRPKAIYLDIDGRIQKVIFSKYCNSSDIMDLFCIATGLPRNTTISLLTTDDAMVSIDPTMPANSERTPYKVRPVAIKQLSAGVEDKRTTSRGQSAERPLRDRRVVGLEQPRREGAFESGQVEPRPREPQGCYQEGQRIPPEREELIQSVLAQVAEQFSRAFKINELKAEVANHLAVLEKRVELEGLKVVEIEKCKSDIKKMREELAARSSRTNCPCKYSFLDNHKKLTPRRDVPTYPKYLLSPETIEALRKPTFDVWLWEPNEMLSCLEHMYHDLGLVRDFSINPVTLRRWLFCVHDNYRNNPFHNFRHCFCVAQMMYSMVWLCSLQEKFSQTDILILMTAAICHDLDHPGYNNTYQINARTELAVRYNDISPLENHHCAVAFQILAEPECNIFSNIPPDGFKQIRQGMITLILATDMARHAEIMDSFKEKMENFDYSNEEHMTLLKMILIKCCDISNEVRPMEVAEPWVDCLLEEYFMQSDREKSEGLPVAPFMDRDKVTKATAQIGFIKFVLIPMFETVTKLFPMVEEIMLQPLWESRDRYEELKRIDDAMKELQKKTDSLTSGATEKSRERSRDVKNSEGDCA
Experiment: PDE9-inhibiting activity (SPA, 3H-cGMP degradation)
Conditions: PDE9-inhibiting activity (IC50 values), cGMP 1 μM, 30° C.
What pIC50 was measured for each of the following?
One number for each entry, as −log10 of the molar value.

Consider the reported pIC50 for these molecules:
MOLECULE	pIC50
COc1cc2c(cn1)N(C(=O)c1cc3[nH]c(=O)c4cnc(C5CCOCC5)n4c3cc1F)CC2	7.29
Cc1cc2c(cc1C(=O)N1CCc3cc(Br)cnc31)[nH]c(=O)c1cnc(C3CCCOC3)n12 (stereo not drawn)	8.68
Cc1cc2c(cc1C(=O)N1Cc3c(F)ccc(F)c3C1)[nH]c(=O)c1cnc(C3CCOC3)n12 (single isomer, unassigned) [Example 39(b)]	7.85
Cc1cc2c(cc1C(=O)N1Cc3c(F)ccc(F)c3C1)[nH]c(=O)c1nnc(C3CCC3)n12	7.28
Cc1cc2c(cc1C(=O)N1CCc3cc(Br)cnc31)[nH]c(=O)c1nnc(CC3CC3)n12	7.77

Batch request: pIC50 per item, same order as input.
1. Cc1cc2c(cc1C(=O)N1Cc3cccc(CN(C)C)c3C1)[nH]c(=O)c1cnc(C3CCOCC3)n12
2. CCc1cc2c(cc1C(=O)N1CCc3cc(Br)cnc31)[nH]c(=O)c1nnc(C3CCC3)n12
3. Cc1cc2c(cc1C(=O)N1CC(C)c3cc(Cl)ccc31)[nH]c(=O)c1cnc(C3CCOCC3)n12.Cl (stereo not drawn)

[7.51, 7.72, 8.85]

Batch request: pIC50 per item, same order as input.
1. O=C(c1cc2[nH]c(=O)c3cnc(C4CCOCC4)n3c2cc1F)N1CCc2cc(Cl)ccc21
2. Cc1cc2c(cc1C(=O)N1Cc3c(F)ccc(F)c3C1)[nH]c(=O)c1nnc(CC3CC3)n12
3. COCc1cc2c(cc1C(=O)N1Cc3cccc(F)c3C1)[nH]c(=O)c1cnc(C3CCOC3)n12 (stereo not drawn)
4. Cl.O=C(c1cc2[nH]c(=O)c3cnc(C4CCOCC4)n3c2cc1OCC1CCOC1)N1CCc2cc(F)ccc21 (stereo not drawn)
5. Cc1cc2c(cc1C(=O)N1CC(C)(C)c3cc(Br)cnc31)[nH]c(=O)c1nnc(C3CCOCC3)n12
6. Cc1cc2c(cc1C(=O)N1CCc3cc(F)c(F)cc31)[nH]c(=O)c1cnc(C3CCOC3)n12 (single isomer, unassigned) [Example 30(a)]
7. COCc1cc2c(cc1C(=O)N1CCc3cc(C)cnc31)[nH]c(=O)c1cnc(C3CCOC3)n12 (single isomer, unassigned) [Example 25(b)]

1: 8.44; 2: 7.55; 3: 7.89; 4: 8.35; 5: 9.09; 6: 7.42; 7: 7.85

Batch request: pIC50 per item, same order as input.
1. O=C(c1cc2[nH]c(=O)c3cnc(C4CCOCC4)n3c2cc1OCC1CCOC1)N1CCc2cc(Br)cnc21 (stereo not drawn)
2. Cc1cc2c(cc1C(=O)N1Cc3c(F)ccc(F)c3C1)[nH]c(=O)c1cnc(C3CCOC3)n12 (single isomer, unassigned) [Example 39(a)]
3. Cc1cnc2c(c1)CCN2C(=O)c1cc2[nH]c(=O)c3cnc(C4CCOC4)n3c2cc1C (single isomer, unassigned) [Example 26(b)]

1: 8.46; 2: 7.28; 3: 7.35

----------
Target: PDE9 (Homo sapiens, UniProt O76083)
Experiment: PDE9-inhibiting activity (SPA, 3H-cGMP degradation)
Settings: PDE9-inhibiting activity (IC50 values), cGMP 1 μM, 30° C.
Procedure: The PDE9 used in the present experiment was expressed/purified by the method as in, for example, Guipponi et al., and Fisher et., al. (Fisher, D. A., et al., J. Biol. Chem., 273: pp. 15559-15564 (1998), Guipponi, M., et al., Hum. Genet., 103: pp. 386-392 (1998)). (2) Evaluation of PDE9-Inhibiting Activity The PDE9-inhibiting activity was measured by the following method. […]
OUTCOME MEASURE: IC50
Write the quantity with the unit trailing the number.

Consider the reported IC50 for these compounds:
COMPOUND	SYSTEM	IC50
CCc1cnc2c(c1)CCN2C(=O)c1cc2[nH]c(=O)c3cnc(C4CCOC4)n3c2cc1C (single isomer, unassigned) [Example 28(b)]	PDE9 (Homo sapiens, UniProt O76083)	47 nM
COCC1Cc2cc(Cl)ccc2N1C(=O)c1cc2[nH]c(=O)c3nnc(C4CCOCC4)n3c2cc1C (stereo not shown)	PDE9 (Homo sapiens, UniProt O76083)	1.3 nM
CCc1cnc2c(c1)CCN2C(=O)c1cc2[nH]c(=O)c3cnc(C4CCOCC4)n3c2cc1C	PDE9 (Homo sapiens, UniProt O76083)	14 nM

Next item in the queue.
Name the recorded IC50 for Cc1cc2c(cc1C(=O)N1CCc3cc(F)c(F)cc31)[nH]c(=O)c1cnc(C3CCOC3)n12 (stereo not shown) [Example 30] .
11 nM

----------
What melting point was measured for each of the following?

Consider the reported melting point for these compounds:
COMPOUND	OUTCOME MEASURE	OBS VALUE
Cc1cc2c(cc1C(=O)N1CCc3cc(Br)cnc31)[nH]c(=O)c1cnc(C3CCCOC3)n12 (stereo not drawn) [Example 47]	melting point	300 to 305 °C (dec.)
COCc1cc2c(cc1C(=O)N1Cc3cccc(F)c3C1)[nH]c(=O)c1cnc(C3CCOC3)n12 (stereo not drawn) [Example 42]	melting point	154 to 156 °C

Batch request: melting point per item, same order as input.
1. Cc1cc2c(cc1C(=O)N1CCc3cc(Br)cnc31)[nH]c(=O)c1nnc(CC3CC3)n12 [Example 24]
2. COCc1cc2c(cc1C(=O)N1CCc3cc(Br)cnc31)[nH]c(=O)c1nnc(C3CCC3)n12 [Example 41]
3. COc1cc2c(cn1)N(C(=O)c1cc3[nH]c(=O)c4cnc(C5CCOC5)n4c3cc1C)CC2 (stereo not drawn) [Example 27]
4. Cl.O=C(c1cc2[nH]c(=O)c3cnc(C4CCOCC4)n3c2cc1OCC1CCOC1)N1CCc2cc(F)ccc21 (stereo not drawn) [Example 10]
5. O=C(c1cc2[nH]c(=O)c3cnc(C4CCOCC4)n3c2cc1Cl)N1CCc2cc(Br)cnc21 [Example 48]

["268 to 271 °C", "174 to 176 °C", "241 to 243 °C", "177 to 180 °C", "270 to 275 °C (dec.)"]

Batch request: melting point per item, same order as input.
1. COc1cc2c(cc1C(=O)N1CCc3cc(Br)cnc31)[nH]c(=O)c1cnc(C3CCOCC3)n12 [Example 23]
2. COCc1cc2c(cc1C(=O)N1CCc3cc(Cl)ccc31)[nH]c(=O)c1nnc(C3CCC3)n12.Cl [Example 46]
3. CCc1cnc2c(c1)CCN2C(=O)c1cc2[nH]c(=O)c3cnc(C4CCOCC4)n3c2cc1C [Example 13]

["316 to 319 °C (dec.)", "170 to 172 °C", "331 to 333 °C"]

----------
Biological target: PDE9 (Homo sapiens)
Construct: made in house
Test: PDE9-inhibiting activity (SPA, 3H-cGMP degradation)
Assay type: biochemical
Conditions: PDE9-inhibiting activity (IC50 values), cGMP 1 μM, 30° C.
Method: The PDE9 used in the present experiment was expressed/purified by the method as in, for example, Guipponi et al., and Fisher et., al. (Fisher, D. A., et al., J. Biol. Chem., 273: pp. 15559-15564 (1998), Guipponi, M., et al., Hum. Genet., 103: pp. 386-392 (1998)). (2) Evaluation of PDE9-Inhibiting Activity The PDE9-inhibiting activity was measured by the following method. […]
OUTCOME MEASURE: pIC50
Answers are plain numbers, as −log10 of the molar value.

Consider the reported pIC50 for these compounds:
COMPOUND	OBS VALUE
COc1cc2c(cn1)N(C(=O)c1cc3[nH]c(=O)c4cnc(C5CCCOC5)n4c3cc1C)CC2 (stereo not shown) [Example 3]	7.66
Cc1cc2c(cc1C(=O)N1CCc3cc(F)ccc31)[nH]c(=O)c1cnc([C@@H]3CCC[C@@H]3O)n12 [Example 22]	7.25
Cc1cnc2c(c1)CCN2C(=O)c1cc2[nH]c(=O)c3cnc(C4CCOC4)n3c2cc1C (single isomer, unassigned) [Example 26(a)]	6.82
CCc1cc2c(cc1C(=O)N1CCc3cc(Br)cnc31)[nH]c(=O)c1nnc(CC3CC3)n12 [Example 18]	8.27

Batch request: pIC50 per item, same order as input.
1. COC1CC(c2nnc3c(=O)[nH]c4cc(C(=O)N5CCc6cc(Br)ccc65)c(C)cc4n23)C1.Cl (stereo not shown) [Example 15]
2. COC1CC(c2nnc3c(=O)[nH]c4cc(C(=O)N5CCc6cc(Br)cnc65)c(C)cc4n23)C1 (stereo not shown) [Example 34]
3. COCc1cc2c(cc1C(=O)N1CCc3cc(Br)cnc31)[nH]c(=O)c1nnc(C3CCC3)n12 [Example 41]

1: 8.55; 2: 8.12; 3: 7.74
